molecular target: Human M4 (Homo sapiens, UniProt P08173); construct: expressed in transfected cells; host or cells: CHO-K1 (ATCC), co-transfected with chimeric G protein Gqi5; test: mAChR M4 cell-based functional assay (calcium flux, antagonism of EC80 acetylcholine response); conditions: CHO-K1, % ACh maximum at 30 μM; M4/Gqi5/CHO-K1 cells; read-out: Human M4 Emin
Sequence (P08173 whole entry): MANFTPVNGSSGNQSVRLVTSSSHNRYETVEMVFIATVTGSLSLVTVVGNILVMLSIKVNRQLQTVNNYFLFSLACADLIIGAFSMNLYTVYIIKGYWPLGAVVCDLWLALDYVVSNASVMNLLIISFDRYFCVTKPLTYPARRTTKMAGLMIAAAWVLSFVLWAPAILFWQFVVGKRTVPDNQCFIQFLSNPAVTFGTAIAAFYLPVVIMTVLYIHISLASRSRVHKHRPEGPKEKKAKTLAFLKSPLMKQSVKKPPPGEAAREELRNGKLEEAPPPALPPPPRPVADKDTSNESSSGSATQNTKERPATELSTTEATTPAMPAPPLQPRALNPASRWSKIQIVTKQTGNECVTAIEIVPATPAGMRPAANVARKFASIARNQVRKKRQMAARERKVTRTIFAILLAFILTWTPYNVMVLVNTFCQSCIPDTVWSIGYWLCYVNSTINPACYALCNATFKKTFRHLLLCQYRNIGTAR
Below, each of the compounds is paired with its reported remaining activity at 30 µM value.
MEASUREMENT_KIND: remaining activity at 30 µM (%)

compound="[2H]C([2H])(C1CCOCC1)N1C[C@H]2C[C@H](Nc3nnc(-c4ccc5nn(C)cc5c4)cc3C)C[C@H]2C1 [compound 22]" unit_label=% readout_value=4
compound="OC1(CN2C[C@H]3C[C@H](Nc4cc(C(F)F)c(-c5cc(F)cc(F)c5F)nn4)C[C@H]3C2)CCOCC1 [compound 55]" unit_label=% readout_value=2
compound="Fc1cc(F)c(F)c(-c2nnc(N[C@H]3C[C@@H]4CN(C[C@@H]5COCCO5)C[C@@H]4C3)cc2C(F)F)c1 [compound 56]" unit_label=% readout_value=2
compound="[2H]C([2H])(C1CCOCC1)N1C[C@H]2C[C@H](Nc3nnc(-c4cc(F)ccc4F)c(C)c3C)C[C@H]2C1 [compound 60]" unit_label=% readout_value=2
compound="Cc1c(-c2cccc(F)c2)nnc(N[C@H]2C[C@@H]3CN(CC4CCOCC4)C[C@@H]3C2)c1C#N [compound 69]" unit_label=% readout_value=3
compound="Fc1ccc(F)c(-c2cc(C(F)F)c(N[C@H]3C[C@@H]4CN(C[C@@H]5COCCO5)C[C@@H]4C3)nn2)c1 [compound 80]" unit_label=% readout_value=4
